Parameter p53-positive nuclei, normalised: see the listing below.
- Study Target: Cellular tumor antigen p53 (Homo sapiens) (UniProt P04637)
- Sequence (P04637 whole entry, looked up): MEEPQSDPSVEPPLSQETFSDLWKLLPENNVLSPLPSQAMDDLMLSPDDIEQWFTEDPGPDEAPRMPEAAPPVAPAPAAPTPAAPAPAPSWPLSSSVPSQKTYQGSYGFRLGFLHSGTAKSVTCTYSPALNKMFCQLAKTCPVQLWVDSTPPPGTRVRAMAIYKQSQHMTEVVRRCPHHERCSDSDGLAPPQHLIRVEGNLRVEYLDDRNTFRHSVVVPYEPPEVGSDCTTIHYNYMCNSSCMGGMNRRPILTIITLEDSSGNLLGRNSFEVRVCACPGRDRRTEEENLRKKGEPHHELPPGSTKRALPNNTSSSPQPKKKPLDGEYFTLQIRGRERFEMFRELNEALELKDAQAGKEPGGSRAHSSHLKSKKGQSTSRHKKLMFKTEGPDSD
- Procedure Summary: nuclear p53 accumulation, HPV+ cells – imaging, p53-positive nuclei imaging, 24 h, 48 h (AID 1508601)
- Run Parameters: 24/48 h, measured here: p53 positive nuclei at 24 h, Library stock concentration: 400 uM, stronger effect = higher value
Out of some 5,700 compounds screened, about 85 (1%) were called active. Shown is part of a subset that was picked to be rich in actives.
In your response, the unit should come after the numeric value.

Query Smiles	p53-positive nuclei, normalised
COc1cc(OC)cc(-c2ccc3ncc4ccc(=O)n(-c5ccc(N6CCNCC6)c(C(F)(F)F)c5)c4c3c2)c1	0.233%
C=CC(=O)N1CCc2ccc(-n3c(=O)ccc4cnc5ccc(-c6cnn(C)c6)cc5c43)cc21	-0.129%
COc1ccc(-c2ccc3ncc4c(c3c2)n(-c2ccc(N3CCNCC3)c(C(F)(F)F)c2)c(=O)n4C)cn1	1.06%

Would you kindly look at the next entry?
Prompt: Lookup: p53-positive nuclei, normalised / Cellular tumor antigen p53 (Homo sapiens) (UniProt P04637) / `COc1ccc2nc3ccc(OC)cc3c(SCCCN)c2c1`
Completion: -0.136%

Numbers sourced from PubChem BioAssay AID1508601.
